Tested on: HOP-92 NSCLC
Test: NCI tumour cell line growth inhibition, 48 h
TGI listing for selected molecules.
Outcome measure: TGI

O=c1[nH]c(Nc2ccccc2)nc2c1ncn2CC(O)CSCCO (stereo unspecified)	> 100 µM
CCc1c2c(nc3ccc(OCc4ccc(B(O)O)cc4)cc13)-c1cc3c(c(=O)n1C2)COC(=O)[C@]3(O)CC	4.36 µM
Cn1c(=O)c2[nH]c(N/N=N/c3nncs3)nc2n(C)c1=O	> 100 µM
O=C(Nc1ccccc1)N(C1=NCC(CI)S1)c1ccc(F)c(F)c1 (stereo unspecified)	26.3 µM
COC(=O)Cc1cc(O)c2c(c1O)C(=O)c1ccccc1C2=O	56 µM
O=C(/C=C/c1ccccc1)Oc1cccc2cccnc12	81.6 µM
COC(=O)[C@H]1C=NN[C@@H]1C(=O)N1[C@H]2CC3CC[C@@]2(CS1(=O)=O)C3(C)C	> 100 µM
CCNCCNC(=O)c1ccc(I)cc1	> 100 µM
CCOC(=O)C(C#N)(Cc1c[nH]c2ccccc12)NC(C)=O (stereo unspecified)	> 100 µM
CN(C)CCNC(=O)Cn1ccc(=O)c2cc([N+](=O)[O-])ccc21	> 100 µM
N#CC(C#N)=C/C=C(\Cl)c1ccc(Cl)cc1	11.4 µM
